system: human T-lymphocyte CEM; assay: Cell proliferation (Coulter count) assay, CEM; type: cell-based; settings: 72 h, read-out: absolute IC50, CEM
pIC50: −log10 of the molar value.
Would you mind telling me the reported pIC50 of each entry?

A selection of reference data follows.
C[C@H](NP(=O)(N[C@@H](C)C(=O)OCc1ccccc1)OC[C@H]1O[C@@H](n2c(Cl)nc3c(N)ncnc32)C(O)C1O)C(=O)OCc1ccccc1 (stereo partly shown) ... 5.30 to 7.00
CCOC(=O)CNP(=O)(OC[C@H]1O[C@@H](n2c(Cl)nc3c(N)ncnc32)C(O)C1O)Oc1cccc2ccccc12 (stereo partly shown) ... 4.00 to 4.82
CCOC(=O)[C@H](C)NP(=O)(OC[C@H]1O[C@@H](n2c(Cl)nc3c(N)ncnc32)C(O)C1O)Oc1cccc2ccccc12 (stereo partly shown) ... 4.82 to 5.30
C[C@@H](NP(=O)(OC[C@H]1O[C@@H](n2c(Cl)nc3c(N)ncnc32)C(O)C1O)Oc1ccccc1)C(=O)OCc1ccccc1 (stereo partly shown) ... 4.00 to 4.82
C[C@H](NP(=O)(OC[C@H]1O[C@@H](n2c(Cl)nc3c(N)ncnc32)C(O)C1O)Oc1cccc2ccccc12)C(=O)OC1CCCCC1 (stereo partly shown) ... 4.82 to 5.30

Please give pIC50 for each item listed below.
1. CC(C)[C@H](NP(=O)(OC[C@H]1O[C@@H](n2c(Cl)nc3c(N)ncnc32)C(O)C1O)Oc1ccccc1)C(=O)OCc1ccccc1 (stereo partly shown)
2. CCCCCOC(=O)[C@H](C)NP(=O)(OC[C@H]1O[C@@H](n2c(Cl)nc3c(N)ncnc32)C(O)C1O)Oc1cccc2ccccc12 (stereo partly shown)
3. CC(C)C[C@H](NP(=O)(OC[C@H]1O[C@@H](n2c(Cl)nc3c(N)ncnc32)C(O)C1O)Oc1cccc2ccccc12)C(=O)OC1CCCCC1 (stereo partly shown)
4. Nc1ncnc2c1nc(Cl)n2[C@@H]1O[C@H](COP(=O)(N[C@@H](Cc2ccccc2)C(=O)OCc2ccccc2)Oc2ccccc2)C(O)C1O (stereo partly shown)
5. Nc1ncnc2c1nc(Cl)n2[C@@H]1O[C@H](COP(=O)(NCC(=O)OCc2ccccc2)NCC(=O)OCc2ccccc2)C(O)C1O (stereo partly shown)

Reply text:
1. 4.00 to 4.82
2. 5.30 to 7.00
3. 4.82 to 5.30
4. 4.82 to 5.30
5. 5.30 to 7.00

Please give pIC50 for each item listed below.
1. Nc1ncnc2c1nc(Cl)n2[C@@H]1O[C@H](COP(=O)(NCC(=O)OCc2ccccc2)Oc2ccccc2)[C@@H](O)[C@H]1O (mixture of isomers)
2. CCOC(=O)[C@H](CC(C)C)NP(=O)(OC[C@H]1O[C@@H](n2c(Cl)nc3c(N)ncnc32)C(O)C1O)Oc1cccc2ccccc12 (stereo partly shown)
3. CCOC(=O)[C@H](Cc1ccccc1)NP(=O)(OC[C@H]1O[C@@H](n2c(Cl)nc3c(N)ncnc32)C(O)C1O)Oc1cccc2ccccc12 (stereo partly shown)
4. Nc1ncnc2c1nc(Cl)n2[C@@H]1O[C@H](COP(=O)(NCC(=O)OC2CCCCC2)Oc2cccc3ccccc23)C(O)C1O (stereo partly shown)

Reply text:
4.82 to 5.30
4.82 to 5.30
4.82 to 5.30
4.00 to 4.82

----------
Would you mind telling me the reported IC50 of each entry?
system: RPMI-8226; test: CellTiterGlo viability assay, RPMI-8226; type: cell-based, Human; conditions: Homo sapiens, RPMI-8226, 72 h, read-out: IC50 RPMI-8226

CCCCCOC(=O)[C@H](C)NP(=O)(OC[C@H]1O[C@@H](n2c(Cl)nc3c(N)ncnc32)C(O)C1O)Oc1cccc2ccccc12 (some centres unmarked) [Compound E] ... 0.1 to 5 µM
Nc1ncnc2c1nc(Cl)n2[C@@H]1O[C@H](COP(=O)(N[C@@H](Cc2ccccc2)C(=O)OCc2ccccc2)Oc2cccc3ccccc23)C(O)C1O (some centres unmarked) [P] ... 0.1 to 5 µM
CCCCCOC(=O)[C@H](Cc1ccccc1)NP(=O)(OC[C@H]1O[C@@H](n2c(Cl)nc3c(N)ncnc32)C(O)C1O)Oc1cccc2ccccc12 (some centres unmarked) [Q] ... 0.1 to 5 µM
Nc1ncnc2c1nc(Cl)n2[C@@H]1O[C@H](COP(=O)(NCC(=O)OC2CCCCC2)Oc2ccccc2)[C@@H](O)[C@H]1O (mixture of isomers) [Compound A] ... 5 to 15 µM

Below: the item to evaluate.
Inquiry: Supply IC50 value. Item: C[C@H](NP(=O)(OC[C@H]1O[C@@H](n2c(Cl)nc3c(N)ncnc32)C(O)C1O)Oc1cccc2ccccc12)C(=O)OCc1ccccc1 (some centres unmarked) [Compound D]
Reply text: 0.1 to 5 µM

----------
system: HEL92.1.7; test: CellTiterGlo viability assay, HEL92.1.7; format: cell-based; conditions: Homo sapiens, HEL 92.1.7; read-out: Ab EC50 (μM) HEL92.1.7
assay metric: EC50 (µM)
Answers are plain numbers, in µM.

Inquiry: // output EC50; input Nc1ncnc2c1nc(Cl)n2[C@@H]1O[C@H](CO)[C@@H](O)[C@H]1O [8-chloroadenosine, 8-Chloroadenosine, reference compound] ; system HEL92.1.7
Reply text: 2.2

----------
test system: MiaPaCa-2; assay: CellTiterGlo viability assay, MiaPaCa-2; assay type: cell-based; settings: Homo sapiens, MIA PaCa-2, 72 h, read-out: IC50 MiaPaCa-2
assay metric: IC50

A selection of reference data follows.
CCCCCOC(=O)[C@H](C)NP(=O)(OC[C@H]1O[C@@H](n2c(Cl)nc3c(N)ncnc32)C(O)C1O)Oc1cccc2ccccc12 (stereo partly drawn) ... 0.1 to 5 µM
CC(C)C[C@H](NP(=O)(OC[C@H]1O[C@@H](n2c(Cl)nc3c(N)ncnc32)C(O)C1O)Oc1ccccc1)C(=O)OCc1ccccc1 (stereo partly drawn) ... 0.1 to 5 µM

Below: the item to evaluate.
Inquiry: // output IC50; input C[C@H](NP(=O)(OC[C@H]1O[C@@H](n2c(Cl)nc3c(N)ncnc32)C(O)C1O)Oc1cccc2ccccc12)C(=O)OCc1ccccc1 (stereo partly drawn) ; system MiaPaCa-2
Reply text: 0.1 to 5 µM

----------
Would you mind telling me the reported IC50 of each entry?
system: MV4-11; experiment: CellTiterGlo viability assay, MV4-11; format: cell-based; conditions: Homo sapiens, MV4-11, 72 h, read-out: IC50 MV4-11

Please give IC50 for each item listed below.
1. CCCCCOC(=O)CNP(=O)(OC[C@H]1O[C@@H](n2c(Cl)nc3c(N)ncnc32)C(O)C1O)Oc1cccc2ccccc12 (stereo partly drawn)
2. Nc1ncnc2c1nc(Cl)n2[C@@H]1O[C@H](COP(=O)(NCC(=O)OC2CCCCC2)Oc2ccccc2)[C@@H](O)[C@H]1O (mixture of isomers)
3. C[C@H](NP(=O)(OC[C@H]1O[C@@H](n2c(Cl)nc3c(N)ncnc32)[C@H](O)[C@@H]1O)Oc1ccccc1)C(=O)OCc1ccccc1 (mixture of isomers)

Reply text:
1. 100 to 5000 nM
2. 100 to 5000 nM
3. 100 to 5000 nM

----------
tested on: MDAMB231; experiment: CellTiterGlo viability assay, MDAMB231; format: cell-based, Human; conditions: Homo sapiens, MDA-MB-231, 72 h, read-out: IC50 MDAMB231
assay metric: IC50

CC(C)C[C@H](NP(=O)(OC[C@H]1O[C@@H](n2c(Cl)nc3c(N)ncnc32)C(O)C1O)Oc1ccccc1)C(=O)OCc1ccccc1 (stereo partly drawn) [V] ... 15 to 100 µM
CC(C)C[C@H](NP(=O)(OC[C@H]1O[C@@H](n2c(Cl)nc3c(N)ncnc32)C(O)C1O)Oc1cccc2ccccc12)C(=O)OCc1ccccc1 (stereo partly drawn) [H] ... 5 to 15 µM

Below: the item to evaluate.
Inquiry: Supply IC50 value. Item: Nc1ncnc2c1nc(Cl)n2[C@@H]1O[C@H](COP(=O)(NCC(=O)OCc2ccccc2)Oc2ccccc2)[C@@H](O)[C@H]1O (mixture of isomers) [Compound B]
Reply text: 5 to 15 µM

----------
Would you mind telling me the reported pIC50 of each entry?
Test system: MiaPaCa-2
Experiment: CellTiterGlo viability assay, MiaPaCa-2
Format: cell-based
Details: Homo sapiens, MIA PaCa-2, 72 h, read-out: IC50 MiaPaCa-2
Experimental: In vitro viability assay were performed to assess the effects of compounds on cell viability in selected cell lines over ˜72 hrs using the CellTiterGlo (CTG, Promega-G7573) assay. The tests were performed in duplicates with treatment of compounds at 9 points, 3.16 folds titration in 96 well plates over ˜72 hrs. […] All compound solubilities were checked and recorded again, then the plates were transferred to CO2 tissue culture incubator immediately and incubated for 3 days. […]
pIC50: −log10 of the molar value.

A selection of reference data follows.
C[C@H](NP(=O)(OC[C@H]1O[C@@H](n2c(Cl)nc3c(N)ncnc32)[C@H](O)[C@@H]1O)Oc1ccccc1)C(=O)OCc1ccccc1 (mixture of isomers) ... 4.82 to 5.30
Nc1ncnc2c1nc(Cl)n2[C@@H]1O[C@H](COP(=O)(NCC(=O)OCc2ccccc2)Oc2ccccc2)[C@@H](O)[C@H]1O (mixture of isomers) ... 5.30 to 7.00

Below: the item to evaluate.
Inquiry: Supply pIC50 value. Item: Nc1ncnc2c1nc(Cl)n2[C@@H]1O[C@H](COP(=O)(NCC(=O)OC2CCCCC2)Oc2ccccc2)[C@@H](O)[C@H]1O (mixture of isomers)
Reply text: 4.82 to 5.30
